These data points were gathered from patent US20130109581A1.

- measurement target: Abeta 1-42 globulomer (Homo sapiens)
- Construct: beta amyloid (1-42) was monomerized with incubation in hexafluoroisopropanol
- procedure details: Globulomer capture assay in CSF (Example 6)
- Assay type: binding
- condition notes: Abeta 1-42 globulomer spiked at 1 ng/mL into CSF
Where no end group is shown, it is not given here.
Measured 42, 1 ng/ml average reading accompanies every entry in the list below.
I'd appreciate it if you included the unit after the number.

| substance | experimental value |
| --- | --- |
| AAAKAA | 113.5 RLUs |
| AAKKKA | 247 RLUs |

Here is the next item to consider.
Prompt line: Please give the measured 42, 1 ng/ml average reading for this substance: FKFKKK-link: FKFKKK peptide reagent with linker to bead at the right end; charge closest to the beads (FIG. 27) (not fully specified (C-terminus); printed as FKFKKK-link; also: attached to bead through link at right end)
Response line: 1995 RLUs

---

- measurement target: Abeta 1-42 globulomer (Homo sapiens)
- Construct: beta amyloid (1-42) was monomerized with incubation in hexafluoroisopropanol
- procedure details: Globulomer capture assay in CSF (Example 6)
- Format: binding
- condition notes: 1 ng/ml average reading; ratio of 42 to 40
Where no end group is shown, it is not given here.
Label True when 42:40 (signal:noise ratio) >= 2; otherwise False.

# count of solved cases: 5
| substance | answer label |
| --- | --- |
| AAKKAA | False |
| AKKKKA | True |
| Nab-Nab-Nab-Nbn-Nab-Nbn [PSR1] | True |
| KKKFKF-link: KKKFKF peptide reagent with linker to bead at the right end (FIG. 27) (not fully specified (C-terminus); also: attached to bead through link at right end) | True |
| AAKKKA | False |

Prompt line: Can ANFFAHSS be said to have 42:40 (signal:noise ratio) at or above 2?
Response line: False

Prompt line: Can link-FKFKKK: FKFKKK peptide reagent with linker to bead at the left end (FIG. 27) (not fully specified (N-terminus); also: attached to bead through link at left end) be said to have 42:40 (signal:noise ratio) at or above 2?
Response line: True

---

- measurement target: Abeta 1-42 globulomer (Homo sapiens)
- Construct: beta amyloid (1-42) was monomerized with incubation in hexafluoroisopropanol
- procedure details: Globulomer capture assay in CSF (Example 6)
- Type: binding
- condition notes: 1 ng/ml average reading; ratio of 42 to 40
Where no end group is shown, it is not given here.
Response field label takes Fulfilled when 42:40 (signal:noise ratio) is strictly below 3 and Not fulfilled in all other cases.

# count of solved cases: 3
| substance | answer label |
| --- | --- |
| KKKKKK | Not fulfilled |
| FKFSLFSG | Fulfilled |
| AAAKAA | Fulfilled |

Lab note: next substance to report on.
Prompt line: Would you kindly verify if 42:40 (signal:noise ratio) of FKFKKK-link: FKFKKK peptide reagent with linker to bead at the right end; charge closest to the beads (FIG. 27) (not fully specified (C-terminus); printed as FKFKKK-link; also: attached to bead through link at right end) is strictly less than 3?
Response line: Not fulfilled

---

Measured 40, 1 ng/ml average reading accompanies every entry in the list below.
- measurement target: Abeta 1-40 monomer (Homo sapiens, UniProt P05067)
- Construct: Abeta 1-40 monomer capture level; from tissue; host or cells: cerebrospinal fluid (matrix of the assay)
- procedure details: Globulomer capture assay in CSF (Example 6): Abeta 1-40 noise
- Format: binding
- condition notes: Abeta 1-40 signal (noise), CSF samples
Where no end group is shown, it is not given here.
Number only, in RLUs; omit the unit.

Recorded results for 6 substances are shown here.
| substance | measurement target | measured metric | experimental value |
| --- | --- | --- | --- |
| IRYVTHQYILWP | Abeta 1-40 monomer (Homo sapiens, UniProt P05067) | 40, 1 ng/ml average reading | 1011.5 |
| FKFKKK-link: FKFKKK peptide reagent with linker to bead at the right end; charge closest to the beads (FIG. 27) (not fully specified (C-terminus); printed as FKFKKK-link; also: attached to bead through link at right end) | Abeta 1-40 monomer (Homo sapiens, UniProt P05067) | 40, 1 ng/ml average reading | 348 |
| ANFFAHSS | Abeta 1-40 monomer (Homo sapiens, UniProt P05067) | 40, 1 ng/ml average reading | 543 |
| KKKKKK | Abeta 1-40 monomer (Homo sapiens, UniProt P05067) | 40, 1 ng/ml average reading | 197 |
| AAKKKA | Abeta 1-40 monomer (Homo sapiens, UniProt P05067) | 40, 1 ng/ml average reading | 159 |
| AAKKAA | Abeta 1-40 monomer (Homo sapiens, UniProt P05067) | 40, 1 ng/ml average reading | 147 |

Prompt line: Please give the measured 40, 1 ng/ml average reading for this substance: FKFNLFSG
Response line: 1327.5

Prompt line: Please give the measured 40, 1 ng/ml average reading for this substance: AAAKAA
Response line: 134.5

Prompt line: Please give the measured 40, 1 ng/ml average reading for this substance: AKKKKK
Response line: 176

Prompt line: Please give the measured 40, 1 ng/ml average reading for this substance: KKKFKF-link: KKKFKF peptide reagent with linker to bead at the right end (FIG. 27) (not fully specified (C-terminus); also: attached to bead through link at right end)
Response line: 191.5

Prompt line: Please give the measured 40, 1 ng/ml average reading for this substance: FKFSLFSG
Response line: 2011
